Target: T1, human serum proteins (binding ascribed fully to human serum albumin, HSA) (human, UniProt P02768 25-609)
T1 construct: No purified HSA was used
T1 sequence (P02768 25-609 limits assumed): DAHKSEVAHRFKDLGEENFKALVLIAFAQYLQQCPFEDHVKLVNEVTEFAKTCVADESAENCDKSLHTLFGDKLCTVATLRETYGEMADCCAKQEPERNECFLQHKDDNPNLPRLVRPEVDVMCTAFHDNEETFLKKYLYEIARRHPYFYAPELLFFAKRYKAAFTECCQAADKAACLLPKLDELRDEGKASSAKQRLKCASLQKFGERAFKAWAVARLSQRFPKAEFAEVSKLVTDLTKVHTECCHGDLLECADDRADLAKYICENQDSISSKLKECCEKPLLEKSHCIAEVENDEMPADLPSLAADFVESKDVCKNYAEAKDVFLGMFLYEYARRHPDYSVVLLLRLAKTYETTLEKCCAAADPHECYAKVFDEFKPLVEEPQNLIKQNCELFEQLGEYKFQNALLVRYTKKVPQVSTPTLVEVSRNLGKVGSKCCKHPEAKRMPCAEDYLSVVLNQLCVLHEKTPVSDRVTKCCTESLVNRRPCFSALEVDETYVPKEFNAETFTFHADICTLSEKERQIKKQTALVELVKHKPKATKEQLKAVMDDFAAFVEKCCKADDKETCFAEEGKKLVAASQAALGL
Test: apparent Kd* by EC50 shift analysis: Jurkat viability EC50 at 0, 2 and 10% human serum, fit assuming 1:1 binding to HSA
pKd: −log10 of the molar value. Bridge positions count the residues as written; N and C are the ends. Square brackets hold non-standard residues; d marks the D form. * marks the point of attachment. S5 = C=CCCC[C@](C)(N)C(=O)O; Nle = CCCC[C@H](N)C(=O)O; Aib = CC(C)(N)C(=O)O; Propionyl = CCC(=O)*
parameter.measured: pKd

INSERT INTO results (binder, bound_operator, result_number) VALUES
  ('Ac-RWIAQALR[S5]IGD[S5]FNAFYARR-NH2 (staple 9-13) [Compound 14 (crosslinked polypeptide derived from human BIM BH3)]', '=', 5.64),
  ('Propionyl-RNIARHLA[S5]VGD[S5][Nle][Aib]RSI-NH2 (staple 9-13) [Compound 8 (crosslinked polypeptide derived from human BID BH3)]', '=', 5.64),
  ('IWIAQALRXIGDXFNAYYARR (N-terminal acetyl (Ac); C-terminal amide (NH2); $ at 9 and 13 (alpha-methyl amino acids joined by an all-carbon eight-carbon crosslinker with a double bond)) [Compound 12 (crosslinked polypeptide derived from human BIM BH3)]', '=', 5.64),
  ('Ac-ERLRRRI[S5]LAR[S5]HHST-NH2 (staple 8-12, also called hMAML) [Compound 18 (crosslinked polypeptide derived from human MAML peptide sequence)]', '>', 7.00),
  ('Ac-IWIAQQLR[S5]IGD[S5]FNAYYARR-NH2 (staple 9-13) [Compound 11 (crosslinked polypeptide derived from human BIM BH3)]', '=', 5.96),
  ('Propionyl-RNIARHLA[S5]V[Aib]D[S5]FARSI-NH2 (staple 9-13) [Compound 7 (crosslinked polypeptide derived from human BID BH3)]', '=', 5.96);

Values compiled from patent US9175045B2.
